Values from paper PMC12272566

# TEST SYSTEM: α-glucosidase (Saccharomyces cerevisiae, UniProt P53341)
# Sequence (P53341 whole entry): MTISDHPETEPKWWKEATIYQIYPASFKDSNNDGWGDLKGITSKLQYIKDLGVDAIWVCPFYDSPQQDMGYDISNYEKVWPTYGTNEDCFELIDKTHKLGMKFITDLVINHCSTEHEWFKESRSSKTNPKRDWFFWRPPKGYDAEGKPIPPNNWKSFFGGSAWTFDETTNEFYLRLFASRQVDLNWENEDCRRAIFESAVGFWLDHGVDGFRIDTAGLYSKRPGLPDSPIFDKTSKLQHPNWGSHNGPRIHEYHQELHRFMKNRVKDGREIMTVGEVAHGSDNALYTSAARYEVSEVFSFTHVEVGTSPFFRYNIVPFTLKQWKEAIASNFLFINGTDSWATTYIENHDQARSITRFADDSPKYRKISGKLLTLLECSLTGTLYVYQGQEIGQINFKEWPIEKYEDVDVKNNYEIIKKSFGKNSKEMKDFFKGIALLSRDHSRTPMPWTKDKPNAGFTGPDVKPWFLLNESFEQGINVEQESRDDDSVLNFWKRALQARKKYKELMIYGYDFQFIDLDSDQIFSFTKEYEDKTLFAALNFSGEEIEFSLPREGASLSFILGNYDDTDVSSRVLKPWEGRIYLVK
MEASUREMENT TYPE: Ki (µM)
The reply should be a number in µM, with the unit left off.

Ask: Could you share what Ki was measured for COc1cc(O)cc(/C=C/c2ccc(O)cc2)c1 [pinostilbene, 3-methoxy-4′,5-dihydroxy-trans-stilbene] , tested on α-glucosidase (Saccharomyces cerevisiae, UniProt P53341)?
Result: 14.3

---

# TEST SYSTEM: aldose reductase (Rattus norvegicus, UniProt P07943)
MEASUREMENT TYPE: pIC50
Scale for pIC50: -log10 of concentration given in mol/L; no unit attached.

Ask: Dear colleague, I am looking for the recorded pIC50 of the following compound: COc1cc(O)cc(/C=C/c2ccc(O)cc2)c1 [pinostilbene, 3-methoxy-4′,5-dihydroxy-trans-stilbene]
Result: 4.26
